The reader will find reported survival values listed item by item below.
- Test system: DeltatarO mutant
- assay comment: S. aureus survival, RN4220 and DeltatarO strains – OD600, teichoic acid synthesis inhibitors, primary screen (AID 463173)
- conditions: S. aureus RN4220 wild type/DeltatarO growth, OD600, 18 h, active compounds read low, screened at 18.75 µg/mL (by protocol)
The whole screen tested about 52,000 compounds, of which about 4,300 (8.3%) were called active. Many of the other results were omitted from the sample, so actives are more common in it than they were.
measured parameter: survival (%)

>>> numeric_value("CCCN(C(=O)c1cc2c(=O)oc3ccccc3c2s1)c1ccccc1C")
54
>>> numeric_value("Sc1ccc2oc3ccc(S)cc3c2c1")
93
>>> numeric_value("CCOC(=O)C1CCN(C(=O)Cn2nc(CC)n3c(cc4sccc43)c2=O)CC1")
134
>>> numeric_value("Cc1ccc(OCC(=O)Nc2nonc2-c2ccc(Br)cc2)cc1")
75
>>> numeric_value("COc1ccc(C(=O)n2nc(-c3ccc(Cl)cc3)nc2NCc2ccco2)cc1")
115
>>> numeric_value("Cc1ccccc1NC(=O)CSc1nc2c(c(=O)n(C)c(=O)n2C)n1Cc1ccccc1F")
56
>>> numeric_value("O=C(c1ccco1)n1nc(-c2ccc(Cl)cc2)nc1NCc1ccccc1")
74
>>> numeric_value("O=C(Nc1cccc(C(F)(F)F)c1)c1ccc(F)c(S(=O)(=O)N2CCc3ccccc3C2)c1")
91
>>> numeric_value("COc1cccc(Cn2c(=O)n(CC3CCC(C(=O)N4CCOCC4)CC3)c(=O)c3sccc32)c1 (centres undefined)")
124
>>> numeric_value("O=C(CSc1nc(O)cc(=O)[nH]1)Nc1ccccc1")
82
>>> numeric_value("COc1ccc(C)cc1NC(=O)NC(C)c1c(-n2cccc2)sc(C)c1C (centres undefined)")
44
>>> numeric_value("CCCS(=O)(=O)N1CCCC(C(=O)NCCCOC)C1 (centres undefined)")
77
>>> numeric_value("CCN1C(=O)c2ccccc2Sc2ccc(NC(=O)COc3ccc(Cl)cc3)cc21")
91
>>> numeric_value("Cc1cccc(OCC(=O)Nc2nonc2-c2ccc(Br)cc2)c1C")
68
>>> numeric_value("COc1ccc(-c2cn3c(c2C)-c2ccc(C)n2CC3)cc1")
91
>>> numeric_value("O=C(c1ccccc1)n1nc(-c2ccc(Cl)cc2)nc1NCc1ccco1")
23
>>> numeric_value("CCc1ccc(CNC(=O)c2cc3c(=O)oc4ccc(C)cc4c3s2)cc1")
82
>>> numeric_value("NS(=O)(=O)c1ccc(NC(=O)c2csnn2)cc1")
80
>>> numeric_value("O=C(Nc1cccc(Cl)c1Cl)c1ccc2c(c1)N(Cc1cccc(Cl)c1)C(=O)c1ccccc1S2(=O)=O")
108
>>> numeric_value("Cc1ccc(C)c(CSc2nc3ncccc3[nH]2)c1")
73
>>> numeric_value("Cc1cccc(C)c1OCC(=O)Nc1nonc1-c1ccc(Br)cc1")
41
>>> numeric_value("O=C(c1ccc(F)cc1)n1nc(-c2ccccc2)nc1NCc1ccco1")
18
>>> numeric_value("CCOc1ccccc1NC(=O)CSc1c2c(nc3ccc(Cl)cc13)CCCC2")
45
>>> numeric_value("CCCN(C(=O)c1cc2c(=O)oc3ccccc3c2s1)c1ccc(CC)cc1")
31
>>> numeric_value("COc1ccc(NS(=O)(=O)c2cc(-c3onc(C)c3C)ccc2C)c(OC)c1")
89
>>> numeric_value("CCN(CC)CCNC(=O)c1cn(CC)c2ccc(S(=O)(=O)N(C)C3CCCCC3)cc2c1=O")
107
>>> numeric_value("Cc1cccc(-n2nnc(-c3nc(-c4cccs4)no3)c2N)c1")
87
>>> numeric_value("COCCCNC(=O)CSc1c2c(nc3ccc(Cl)cc13)CCCC2")
68
>>> numeric_value("Oc1ccccc1C1OC2CCCCC2C2=CCCCC21 (centres undefined)")
34
>>> numeric_value("Cc1cccc(OC(C)C(=O)Nc2nonc2-c2ccc(Br)cc2)c1C (centres undefined)")
70
>>> numeric_value("O=C(c1ccc(Cl)cc1)n1nc(-c2ccccc2)nc1NCc1ccco1")
29
>>> numeric_value("COc1ccccc1NC(=O)CSc1ncc2c(n1)-c1ccccc1N(Cc1ccccc1C)S2(=O)=O")
101
>>> numeric_value("CC1=CCC2(CO)COC(c3ccccc3O)C1C2 (centres undefined)")
90
>>> numeric_value("CCc1ccc(N(CC)C(=O)c2cc3c(=O)oc4ccc(C)cc4c3s2)cc1")
42
>>> numeric_value("COCCN(Cc1cc2cc3c(cc2nc1Cl)OCO3)C(=O)Nc1ccccc1OC")
92
>>> numeric_value("O=C(NCc1ccc(F)cc1)C1CCN(c2ncnc3c2nc2n3CCCCC2)CC1")
86
>>> numeric_value("Cc1cc(C)cc(OC(C)C(=O)Nc2nonc2-c2ccc(Br)cc2)c1 (centres undefined)")
14
>>> numeric_value("O=C(Nc1ccccn1)c1cccs1")
109
>>> numeric_value("CC(C)OCCCNC(=O)CSc1c2c(nc3ccc(Cl)cc13)CCCC2")
71
>>> numeric_value("COC(=O)c1ccccc1NC(=O)CSc1c2c(nc3ccc(Cl)cc13)CCCC2")
86
>>> numeric_value("CC(C)CCNC(=O)CSc1c2c(nc3ccc(Cl)cc13)CCCC2")
51
>>> numeric_value("CC1=C(C(=O)Nc2cccnc2)C(c2ccccc2)n2nc(SCc3ccccc3)nc2N1 (centres undefined)")
74
>>> numeric_value("CCOCCc1nn2c(=O)cc(COC(=O)c3ccc(NC(=O)C4CCCCC4)cc3)nc2s1")
70
>>> numeric_value("Cc1ccc(C(=O)Nc2nnc(S(=O)(=O)N(C)Cc3ccc(F)cc3)s2)cc1")
60

These data points were gathered from PubChem BioAssay AID463173.
